assay: growth inhibition of WT strain, primary screen, mitochondrial fusion inhibitor project, WT and mutant strains, chemical genetic (AID 1362); conditions: mitochondrial fusion phenotypic screen, mutant strain inhibition; at 10 µM
Out of some 190,000 compounds screened, about 4,000 (2.1%) were called active. This excerpt belongs to a sample that is enriched for actives.
Quick reference for inhibition among some molecules
# output: bare number, implied unit %

Look over these answered cases.
{"molecule": "Cc1cc(C)c(C2C3=C(Nc4c2c(C)nn4-c2ccccn2)c2ccccc2C3=O)c(C)c1 (stereo unspecified)", "readout.unit": "%", "inhibition": 55}
{"molecule": "CC1(C)CC2CC(C)(CN2c2ncnc3ccc(Br)cc23)C1 (stereo unspecified)", "readout.unit": "%", "inhibition": 47.6}
{"molecule": "O=C(NCc1ccccn1)Nc1ccc(F)cc1", "readout.unit": "%", "inhibition": -0.93}

Enquiry: Find the recorded inhibition belonging to COc1ccc(C(=O)N2CC3(C)CC2CC(C)(C)C3)cc1OC (stereo unspecified) and report it.
Return: 6.2

Enquiry: Find the recorded inhibition belonging to C=CCNc1ncnc2ccc(Br)cc12 and report it.
Return: 5.26

Enquiry: Find the recorded inhibition belonging to CCC(C)c1ccc(NC(=S)NCc2ccccn2)cc1 (stereo unspecified) and report it.
Return: 62.6
